Origin of values: patent US20250136699A1

EC50 (read off the curve) by entry:
tgt: T1, human FCGRT (human, UniProt P55899 24-297, biotinylated (Avi tag) in the blocking assays)
T1 construct: Alpha chain alone, expressed in Expi293 cells with His and Avi tags; also called FCGRT of human FcRn protein; biotinylated human FCGRT; not shown: His tag and Avi tag
test-details: ELISA: human FCGRT coated, antibody titrated, goat anti-human IgG Fab-HRP, OD450

| binder | measure | value-observed |
| --- | --- | --- |
| ZLP37 (antibody, V domains shown, Full-length chimeric antibody with human IgG1 or IgG4 heavy constant and human kappa or lambda light constant domain) VH: EVQLQQSGVELARPGASVKMSCKASGYTFSSYAMQWVKKRPGQGLEWIGYINPGTGYTNYNQKFKDKATLTADKSSSTAYMHLSSLTSEDSAVYFCARGGGLRGAMDYWGQGTSVTVSS VL: DIVLTQSPALMSASPGEKVTMTCSANSSVNYMYWYQQKPGSSPKLWIYSTSNLASGVPARFSGSGSGTSYSLTISSMEAEDAATYYCHQRSSYPWTFGGGTKLEIK | EC50 (read off the curve) | ~20 nM |

For ZLP22 (antibody, V domains shown, Full-length chimeric antibody; human kappa or lambda light constant domain) VH: EVKLVESGAELARPGASVKMSCKASGYTFTSYAMHWVKQRPGQGLEWIGYINPSSGYTNYNQKFKDKATLTADKSSSTAYMQLSSLTSEDSAVYYCARKGLRYAVDYWGQGTSVTVSS VL: DIVMTQSPSSLSVSAGEKVTMSCKSSQSLLNSGNQKNYLAWYQQKPGQPPKLLIYGASTRESGVPDRFTGSGSGTDYTLTISSVQAEDLALYYCQQHYSTPYTFGGGTKLEIK , what is its reported EC50 (read off the curve)?
~7 nM

For ZLP193 (antibody, V domains shown, Full-length chimeric antibody: mouse variable domains with human IgG1 or IgG4 heavy constant domain and human kappa or lambda light constant domain; also called chimeric anti-FcRn antibody ZLP193) VH: EVQLQESGPDLVKPSQSLSLTCTVTGYSFTSGYSWHWIRQFPGNRLEWMGYIHDSGGTNYNPSLKSRISITRDTSKNQFFLQLNSVTTEDTATYYCAREENYRYFDVWGAGTTVTVSS VL: DIQMMQSPAIMSASPGEKVTITCSASSSVSYMHWFQQKPGTSPKLWIYSTSNLASGVPARFSGSGSGTSYSLTISRMEAEDAATYYCQQRSSYPPTFGDGTRLEIK , what is its reported EC50 (read off the curve)?
~1 nM

For ZLP17 (antibody, V domains shown, Full-length chimeric antibody with human IgG1 or IgG4 heavy constant and human kappa or lambda light constant domain) VH: QIQLLQSGAELARPGASVKMSCKASGYTFTSYTMHWVKQRPGQGLEWIGYINPSSGYTNYNQKFKDKATLTADKSSSTAYMQLSSLTSEGSAVYYCARSGLRRVLDYWGQGTSVTVSS VL: ENVLTQSPAILSASPGEKVTMTCSASSSVSYMYWYQQKPGSSPRLLIYDTSNLASGVPVRFSGSGSGTSYSLTISRMEAEDAATYYCQQWSSYPRTFGGGTKLEIK , what is its reported EC50 (read off the curve)?
~20 nM
